# Protocol notes: self-splicing fitness, log relative to wild type (ln ratio); higher = more splicing; Tetrahymena group I intron in knt gene, E. coli kanamycin selection, DiMSum; sequences stand for … in CUCUCU…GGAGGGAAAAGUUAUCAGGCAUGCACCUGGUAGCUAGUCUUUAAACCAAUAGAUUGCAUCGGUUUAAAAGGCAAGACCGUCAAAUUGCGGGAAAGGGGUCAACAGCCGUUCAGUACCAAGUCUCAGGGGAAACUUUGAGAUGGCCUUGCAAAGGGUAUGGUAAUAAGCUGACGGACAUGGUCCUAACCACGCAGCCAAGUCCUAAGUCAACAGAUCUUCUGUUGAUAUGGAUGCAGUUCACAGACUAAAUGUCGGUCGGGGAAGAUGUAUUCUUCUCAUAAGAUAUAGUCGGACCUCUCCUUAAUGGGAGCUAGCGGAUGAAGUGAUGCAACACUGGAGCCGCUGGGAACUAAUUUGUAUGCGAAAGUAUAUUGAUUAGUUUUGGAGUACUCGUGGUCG;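 note: selection with 25 µg/mL kanamycin versus none on LB agar overnight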
# Study conditions: 37 °C
Observation type: self-splicing fitness (ln)
Answers are plain numbers.

Which measured self-splicing fitness (ln) value corresponds to AUGGAGCAAUAUUACGUGGG ?
-0.89

Again, but for AUGGAGCAAUAUUACGAUGC
-2.04

Again, but for UCAGAGCAAUAUUACGACUU
-3.12

Again, but for AGGAAGCAAUAUUACGAGAA
-1.39

Again, but for CAGAAGCAAUAUUACGUAUC
-3.17

Could you now look at the following sequence, please?
Which measured self-splicing fitness (ln) value corresponds to AAUAAGCAAUAUUACGACCC ?
0.479
